- method.summary: Tumor homogenate activation efficiency, breast cancer tissue (Examples 28, 37)
- Type: in vitro ADME
- assay.conditions: pH 5.0, 37° C., 2 h; Table 10
Where a SMILES comes first, the peptide text is derived from it. The star is where a group is joined. Belotecan = CC[C@@]1(O)C(=O)OCc2c1cc1n(c2=O)Cc2c-1nc1ccccc1c2CCN(C(C)C)*; X8 = CC[C@@]1(O)C(=O)OCc2c1cc1n(c2=O)Cc2c-1nc1ccccc1c2CCN(C1CCCC1)*; X5 = CC[C@@]1(O)C(=O)OCc2c1cc1n(c2=O)Cc2c-1nc1ccccc1c2CCN(CC(C)C)*; X3 = CC[C@@]1(O)C(=O)OCc2c1cc1n(c2=O)Cc2c-1nc1ccccc1c2CCN(C1CC1)*; X7 = CC[C@@]1(O)C(=O)OCc2c1cc1n(c2=O)Cc2c-1nc1ccccc1c2CCN(C)*; Propanoyl(3-maleimido) = O=C1C=CC(=O)N1CCC(=O)*; PEG6 = NCCOCCOCCOCCOCCOCCOCCC(=O)O
Listed below: Percentage of release efficiency (%) Breast cancer tissue (SKBR3) values for each entry.
measurement.label: Percentage of release efficiency (%) Breast cancer tissue (SKBR3)

molecule: CC[C@@]1(O)C(=O)OCc2c1cc1n(c2=O)Cc2c-1nc1ccccc1c2CCN(C(=O)[C@H](CC(C)C)NC(=O)[C@H](CC(N)=O)NC(=O)[C@H](C)NC(=O)[C@H](C)NC(=O)CCOCCOCCOCCOCCOCCOCCNC(=O)CCN1C(=O)C=CC1=O)C1CC1 [MI-6PEG-AANL-D6] ({Propanoyl(3-maleimido)-PEG6}-AANL-X3)
readout.unit: %
measured.number: 66.9
//
molecule: CC[C@@]1(O)C(=O)OCc2c1cc1n(c2=O)Cc2c-1nc1ccccc1c2CCN(CC(C)C)C(=O)[C@H](CC(C)C)NC(=O)[C@H](CC(N)=O)NC(=O)[C@H](C)NC(=O)[C@H](C)NC(=O)CCOCCOCCOCCOCCOCCOCCNC(=O)CCN1C(=O)C=CC1=O [MI-6PEG-AANL-D5] ({Propanoyl(3-maleimido)-PEG6}-AANL-X5)
readout.unit: %
measured.number: 70.2
//
molecule: CC[C@@]1(O)C(=O)OCc2c1cc1n(c2=O)Cc2c-1nc1ccccc1c2CCN(C)C(=O)[C@H](CC(C)C)NC(=O)[C@H](Cc1ccccc1)NC(=O)CNC(=O)CNC(=O)CCOCCOCCOCCOCCOCCOCCNC(=O)CCN1C(=O)C=CC1=O [MI-6PEG-GGFL-D1] ({Propanoyl(3-maleimido)-PEG6}-GGFL-X7)
readout.unit: %
measured.number: 69.5
//
molecule: CC[C@@]1(O)C(=O)OCc2c1cc1n(c2=O)Cc2c-1nc1ccccc1c2CCN(C(=O)[C@H](CC(C)C)NC(=O)[C@H](CC(N)=O)NC(=O)[C@H](C)NC(=O)[C@H](C)NC(=O)CCOCCOCCOCCOCCOCCOCCNC(=O)CCN1C(=O)C=CC1=O)C1CCCC1 [MI-6PEG-AANL-D8] ({Propanoyl(3-maleimido)-PEG6}-AANL-X8)
readout.unit: %
measured.number: 70.2
//
molecule: CC[C@@]1(O)C(=O)OCc2c1cc1n(c2=O)Cc2c-1nc1ccccc1c2CCN(C(=O)[C@H](CC(C)C)NC(=O)[C@H](CC(N)=O)NC(=O)[C@H](C)NC(=O)[C@H](C)NC(=O)CCOCCOCCOCCOCCOCCOCCNC(=O)CCN1C(=O)C=CC1=O)C(C)C [MI-6PEG-AANL-Belotecan] ({Propanoyl(3-maleimido)-PEG6}-AANL-Belotecan)
readout.unit: %
measured.number: 69.5

----------
- Test system: sarcoma SJSA-1 tumor model
- assay.conditions: 15 mg/kg once a week for three weeks; Table 2
Where a SMILES comes first, the peptide text is derived from it. The star is where a group is joined. NEt(2-(20S-CPT-7-yl)ethyl) = CCN(CCc1c2c(nc3ccccc13)-c1cc3c(c(=O)n1C2)COC(=O)[C@]3(O)CC)*; Belotecan = CC[C@@]1(O)C(=O)OCc2c1cc1n(c2=O)Cc2c-1nc1ccccc1c2CCN(C(C)C)*; X8 = CC[C@@]1(O)C(=O)OCc2c1cc1n(c2=O)Cc2c-1nc1ccccc1c2CCN(C1CCCC1)*; X1 = CC[C@@]1(O)C(=O)OCc2c1cc1n(c2=O)Cc2c-1nc1ccccc1c2CCN(C1CCC1)*; X3 = CC[C@@]1(O)C(=O)OCc2c1cc1n(c2=O)Cc2c-1nc1ccccc1c2CCN(C1CC1)*; Propanoyl(3-maleimido) = O=C1C=CC(=O)N1CCC(=O)*; PEG6 = NCCOCCOCCOCCOCCOCCOCCC(=O)O
Entries and their Mouse weight (%)
measurement.label: Mouse weight (%)

molecule: CC[C@@]1(O)C(=O)OCc2c1cc1n(c2=O)Cc2c-1nc1ccccc1c2CCN(C(=O)CNC(=O)[C@H](CC(N)=O)NC(=O)[C@H](C)NC(=O)[C@H](C)NC(=O)CCOCCOCCOCCOCCOCCOCCNC(=O)CCN1C(=O)C=CC1=O)C1CCC1 [MI-6PEG-AANG-D7] ({Propanoyl(3-maleimido)-PEG6}-AANG-X1)
result: +31%
//
molecule: CC[C@@]1(O)C(=O)OCC2=C1C=C1c3nc4ccccc4c(CCN(C(=O)OCc4ccc(NC(=O)[C@H](CC(N)=O)NC(=O)[C@H](C)NC(=O)[C@H](C)NC(=O)CCOCCOCCOCCOCCOCCOCCNC(=O)CCN5C(=O)C=CC5=O)cc4)C(C)C)c3CN1C2 [MI-6PEG-AAN-PAB-Belotecan]
result: +6%
//
molecule: CC[C@@]1(O)C(=O)OCc2c1cc1n(c2=O)Cc2c-1nc1ccccc1c2CCN(C(=O)CNC(=O)[C@H](Cc1ccccc1)NC(=O)CNC(=O)CNC(=O)CCOCCOCCOCCOCCOCCOCCNC(=O)CCN1C(=O)C=CC1=O)C1CCC1 [MI-6PEG-GGFG-D7] ({Propanoyl(3-maleimido)-PEG6}-GGFG-X1)
result: +24%
//
molecule: CCN(CCc1c2c(nc3ccccc13)-c1cc3c(c(=O)n1C2)COC(=O)[C@]3(O)CC)C(=O)CNC(=O)[C@H](CCCCN)NC(=O)[C@H](C)NC(=O)[C@H](C)NC(=O)CCOCCOCCOCCOCCOCCOCCNC(=O)CCN1C(=O)C=CC1=O [MI-6PEG-AAKG-D2] ({Propanoyl(3-maleimido)-PEG6}-AAKG-{NEt(2-(20S-CPT-7-yl)ethyl)})
result: +27%
//
molecule: CC[C@@]1(O)C(=O)OCc2c1cc1n(c2=O)Cc2c-1nc1ccccc1c2CCN(C(=O)CNC(=O)[C@H](CC(N)=O)NC(=O)[C@H](C)NC(=O)[C@H](C)NC(=O)CCOCCOCCOCCOCCOCCOCCNC(=O)CCN1C(=O)C=CC1=O)C1CCCC1 [MI-6PEG-AANG-D8] ({Propanoyl(3-maleimido)-PEG6}-AANG-X8)
result: +35%
//
molecule: CCc1c2c(nc3ccc(OC(=O)N4CCC(N5CCCCC5)CC4)cc13)-c1cc3c(c(=O)n1C2)COC(=O)[C@]3(O)CC [Irinotecan, reference compound]
result: +17%
//
molecule: CC[C@@]1(O)C(=O)OCc2c1cc1n(c2=O)Cc2c-1nc1ccccc1c2CCN(C(=O)CNC(=O)[C@H](Cc1ccccc1)NC(=O)CNC(=O)CNC(=O)CCOCCOCCOCCOCCOCCOCCNC(=O)CCN1C(=O)C=CC1=O)C(C)C [MI-6PEG-GGFG-Belotecan] ({Propanoyl(3-maleimido)-PEG6}-GGFG-Belotecan)
result: +29%
//
molecule: CC[C@@]1(O)C(=O)OCc2c1cc1n(c2=O)Cc2c-1nc1ccccc1c2CCN(C(=O)CNC(=O)[C@H](Cc1ccccc1)NC(=O)CNC(=O)CNC(=O)CCOCCOCCOCCOCCOCCOCCNC(=O)CCN1C(=O)C=CC1=O)C1CC1 [MI-6PEG-GGFG-D6] ({Propanoyl(3-maleimido)-PEG6}-GGFG-X3)
result: +28%
//
molecule: CC[C@@]1(O)C(=O)OCc2c1cc1n(c2=O)Cc2c-1nc1ccccc1c2CCN(C(=O)CNC(=O)[C@H](CC(N)=O)NC(=O)[C@H](C)NC(=O)[C@H](C)NC(=O)CCOCCOCCOCCOCCOCCOCCNC(=O)CCN1C(=O)C=CC1=O)C1CC1 [MI-6PEG-AANG-D6] ({Propanoyl(3-maleimido)-PEG6}-AANG-X3)
result: +24%

----------
- method.summary: Tumor homogenate activation efficiency, sarcoma tissue (Examples 28, 37)
- Assay type: in vitro ADME
- assay.conditions: pH 5.0, 37° C., 2 h; Table 5
Where a SMILES comes first, the peptide text is derived from it. The star is where a group is joined. NEt(2-(20S-CPT-7-yl)ethyl) = CCN(CCc1c2c(nc3ccccc13)-c1cc3c(c(=O)n1C2)COC(=O)[C@]3(O)CC)*; Belotecan = CC[C@@]1(O)C(=O)OCc2c1cc1n(c2=O)Cc2c-1nc1ccccc1c2CCN(C(C)C)*; X6 = CCCCCN(CCc1c2c(nc3ccccc13)-c1cc3c(c(=O)n1C2)COC(=O)[C@]3(O)CC)*; X8 = CC[C@@]1(O)C(=O)OCc2c1cc1n(c2=O)Cc2c-1nc1ccccc1c2CCN(C1CCCC1)*; X4 = CCCN(CCc1c2c(nc3ccccc13)-c1cc3c(c(=O)n1C2)COC(=O)[C@]3(O)CC)*; X3 = CC[C@@]1(O)C(=O)OCc2c1cc1n(c2=O)Cc2c-1nc1ccccc1c2CCN(C1CC1)*; Propanoyl(3-maleimido) = O=C1C=CC(=O)N1CCC(=O)*; PEG6 = NCCOCCOCCOCCOCCOCCOCCC(=O)O
measurement.label: Percentage of release efficiency (%) Sarcoma tissue (SJSA1)

compound: CCN(CCc1c2c(nc3ccccc13)-c1cc3c(c(=O)n1C2)COC(=O)[C@]3(O)CC)C(=O)CNC(=O)[C@H](CCCCN)NC(=O)[C@H](C)NC(=O)[C@H](C)NC(=O)CCOCCOCCOCCOCCOCCOCCNC(=O)CCN1C(=O)C=CC1=O [MI-6PEG-AAKG-D2] ({Propanoyl(3-maleimido)-PEG6}-AAKG-{NEt(2-(20S-CPT-7-yl)ethyl)})
measured.number: 76.6
//
compound: CC[C@@]1(O)C(=O)OCc2c1cc1n(c2=O)Cc2c-1nc1ccccc1c2CCN(C(=O)CNC(=O)[C@H](Cc1ccccc1)NC(=O)CNC(=O)CNC(=O)CCOCCOCCOCCOCCOCCOCCNC(=O)CCN1C(=O)C=CC1=O)C(C)C [MI-6PEG-GGFG-Belotecan] ({Propanoyl(3-maleimido)-PEG6}-GGFG-Belotecan)
measured.number: 83.4
//
compound: CCCN(CCc1c2c(nc3ccccc13)-c1cc3c(c(=O)n1C2)COC(=O)[C@]3(O)CC)C(=O)CNC(=O)[C@H](CC(N)=O)NC(=O)[C@H](C)NC(=O)[C@H](C)NC(=O)CCOCCOCCOCCOCCOCCOCCNC(=O)CCN1C(=O)C=CC1=O [MI-6PEG-AANG-D3] ({Propanoyl(3-maleimido)-PEG6}-AANG-X4)
measured.number: 88.9
//
compound: CC[C@@]1(O)C(=O)OCc2c1cc1n(c2=O)Cc2c-1nc1ccccc1c2CCN(C(=O)CNC(=O)[C@H](CC(N)=O)NC(=O)[C@H](C)NC(=O)[C@H](C)NC(=O)CCOCCOCCOCCOCCOCCOCCNC(=O)CCN1C(=O)C=CC1=O)C1CC1 [MI-6PEG-AANG-D6] ({Propanoyl(3-maleimido)-PEG6}-AANG-X3)
measured.number: 79.9
//
compound: CC[C@@]1(O)C(=O)OCc2c1cc1n(c2=O)Cc2c-1nc1ccccc1c2CCN(C(=O)CNC(=O)[C@H](CC(N)=O)NC(=O)[C@H](C)NC(=O)[C@H](C)NC(=O)CCOCCOCCOCCOCCOCCOCCNC(=O)CCN1C(=O)C=CC1=O)C1CCCC1 [MI-6PEG-AANG-D8] ({Propanoyl(3-maleimido)-PEG6}-AANG-X8)
measured.number: 71.1
//
compound: CCCCCN(CCc1c2c(nc3ccccc13)-c1cc3c(c(=O)n1C2)COC(=O)[C@]3(O)CC)C(=O)CNC(=O)[C@H](CC(N)=O)NC(=O)[C@H](C)NC(=O)[C@H](C)NC(=O)CCOCCOCCOCCOCCOCCOCCNC(=O)CCN1C(=O)C=CC1=O [MI-6PEG-AANG-D4] ({Propanoyl(3-maleimido)-PEG6}-AANG-X6)
measured.number: 72.4
